test system: COLO 205 colon; experiment: NCI-60 one-dose screen, 48 h; conditions: 10 µM
About 83,000 compounds went through this panel and 20% of them were active in at least one assay; those are over-represented in the sample as a whole. The source made the active and inactive calls. Rule for the calls: active = growth percent below 10; inactive = the rest.
Hi! Could you answer with just one of these? active, inactive

• Nc1c(CNCc2nnn(Cc3ccccc3)c2N)nnn1Cc1ccccc1 = inactive
• Cc1nc(Nc2nc3ccccc3o2)nc(-c2cccc([N+](=O)[O-])c2)c1C(=O)Nc1ccc(F)c(Cl)c1 = active
• CCOC(=O)Cn1nnc(-c2ccc(OCc3ccccc3F)cc2)n1 = inactive
• CCCCOCC(=O)NC(NP(=O)(N(C)C)N(C)C)C(Cl)(Cl)Cl (stereo unspecified) = inactive

Ask | What is the recorded call for this compound in the test? N=C(N)c1ccc(-c2ccc(-c3ccccc3)s2)s1
Reply | active

Ask | What is the recorded call for this compound in the test? COc1ccc(C(=O)/C=C/c2cc(-c3ccc4c(c3)OCO4)n[nH]2)cc1OC
Reply | inactive

----------
system: KM12 colon; test: NCI-60 one-dose screen, 48 h (100 = growth as untreated, 0 = no growth, -100 = all killed); conditions: 10 µM
Compounds without any hit were thinned out: in the full panel of roughly 83,000, 20% have a hit.
Label False if growth falls below 60%; label True in every other case.

Below are worked cases with known answers.
* C=CCOc1ccc2c(c1)CC=C1[C@@H]2CC[C@]2(C)C(=O)/C(=N/O)C[C@@H]12 | False
* O=C(Nc1ccc(CN2CCOCC2)cc1)c1ccc(-c2cc(Cl)ccc2Cl)o1 | False
* CCC(O)c1ccc(Br)cc1NC(=O)c1cccc(Cl)c1 (stereo not given) | False
* COc1ccc(C2C=C(c3ccc(Cl)c(Cl)c3)N=C3SC(C)=CN32)cc1OC (stereo not given) | False

Ask | Check the entry N#Cc1cnc2ccc(NCc3cnc[nH]3)cc2c1Nc1ccc(F)c(Cl)c1 : does growth equal or exceed 60%?
Reply | True

Ask | Check the entry [O-]c1c[n+](-c2ccc(Cl)cc2)no1 : does growth equal or exceed 60%?
Reply | True

Ask | Check the entry O=C/C=C/c1ccc([N+](=O)[O-])cc1Cl : does growth equal or exceed 60%?
Reply | True

----------
Tested on: RPMI-8226 leukemia
Experiment: NCI-60 one-dose screen, 48 h (100 = growth as untreated, 0 = no growth, -100 = all killed)
Settings: 10 µM
Procedure: Growth inhibition of the RPMI-8226 human tumor cell line is measured as a screen for anti-cancer activity. Cells are grown in 96 well plates and exposed to the test compound for 48 hours. Compounds are tested at a single concentration, which is 10^-5 M for most compounds. The reported endpoint is percent growth (GI% or GIPRCNT), where numbers from 0 - 100% represent growth inhibition, and numbers from -100% - 0 represent cell death. For example, a value of 40 represents 60% growth inhibition. […]
Compounds without any hit were thinned out: in the full panel of roughly 83,000, 20% have a hit.
Label 0 if growth falls below 70%; label 1 in every other case.

• N#CN1CC[C@H](C(=O)Nc2ncc(-c3ccccc3)s2)C1 = 0
• C[C@]12CC[C@H]3[C@@H](CCC4=CC(=O)CC[C@@]43C)[C@@H]1CC[C@@H]2c1csc(N)n1 = 0
• c1ccc(CC(NCCNC(Cc2ccccc2)c2ccccc2)c2ccccc2)cc1 (stereo unspecified) = 0
• O=C(NNC(=O)c1ccncc1)Nc1ccc([N+](=O)[O-])cc1 = 1
• CC1(C)Cc2c(cn(Cc3ccccc3)c2-c2ccccc2)-c2oncc21 = 1

Ask | Check the entry CCOC(=S)Sc1ccc([N+](=O)[O-])cc1[N+](=O)[O-] : does growth equal or exceed 70%?
Reply | 0

----------
test system: RPMI-8226 leukemia; assay: NCI-60 one-dose screen, 48 h (100 = growth as untreated, 0 = no growth, -100 = all killed); settings: 10 µM
The panel holds about 83,000 compounds, 20% with a hit somewhere; the sample as a whole holds those more often.
measured-quantity: growth (%)
Give bare numbers, in %.

Answered examples (5):
• COc1ccc(-c2[nH]ncc2/C=C/c2cc(C(F)(F)F)[nH]c(=O)n2)cc1 = 96.5
• O=c1c2cccc3c(Nc4ccc(Br)cn4)ccc(c32)c2nc3ccccc3n12 = 56.2
• Cn1c(=O)c2[nH]c(C(O)c3ccc(Cl)cc3)nc2n(C)c1=O (stereo unspecified) = 90.6
• CCCc1c(C)nc2scc(-c3ccc(Cl)cc3)n2c1=O = 96.4
• C/C(=N\NC(=S)N1CCCC1)c1ccccn1 = 12.9

Consider the following items and state reported growth for each.
1. CNC(=S)Sc1ccc([N+](=O)[O-])cc1[N+](=O)[O-]
2. S=C(Cc1ccc(-c2ccccc2)cc1)N1CCOCC1
3. CC(=O)c1c(O)cc2c3c1OC(C)(C)C1CCC(C)(CC31)O2 (stereo unspecified)
4. Cn1c([N+](=O)[O-])cnc1/C=C1\Oc2ccc(Br)cc2C1=O
5. COc1ccc2c(=O)cc(C(Cl)(Cl)Cl)oc2c1
6. O=C(CSc1nnc(-c2ccc(Cl)cc2)o1)c1ccccc1

Reply |
[13.7, 96.5, 54.4, 6.2, -27.2, 96.4]

----------
system: UACC-257 melanoma; experiment: NCI-60 one-dose screen, 48 h (100 = growth as untreated, 0 = no growth, -100 = all killed); conditions: 10 µM
Compounds without any hit were thinned out: in the full panel of roughly 83,000, 20% have a hit.
Rule: growth below 80% gives satisfied, anything at or above gives not satisfied.

Below are worked cases with known answers.
• O=C(O)CNS(=O)(=O)c1ccc(OCCOc2ccc(S(=O)(=O)NCC(=O)O)cc2)cc1 = not satisfied
• O=NN(CCCl)C(=O)Nc1ccc(NC(=O)N(CCCl)N=O)cc1 = not satisfied

Ask | Field: below-cutoff. Rule: recorded growth strictly less than 80%. Subject: COCCNCC(O)Cn1c2ccc(Cl)cc2c2cc(Cl)ccc21 (stereo not given)
Reply | satisfied

Ask | Field: below-cutoff. Rule: recorded growth strictly less than 80%. Subject: O=C(NNc1nc(N2CCCC2)nc(N2CCCC2)n1)c1ccccc1
Reply | not satisfied

Ask | Field: below-cutoff. Rule: recorded growth strictly less than 80%. Subject: C=CCNCCCN1C(=O)c2ccc3c4c(ccc(c24)C1=O)C(=O)N(CCCNCC=C)C3=O
Reply | satisfied

Ask | Field: below-cutoff. Rule: recorded growth strictly less than 80%. Subject: COC(=O)c1cnc2c(c1)Oc1ccccc1-c1ccnn1-2
Reply | not satisfied

Ask | Field: below-cutoff. Rule: recorded growth strictly less than 80%. Subject: CC1=CSC2=NC(c3ccc(Cl)c(Cl)c3)=CC(c3ccc(Cl)cc3)N12 (stereo not given)
Reply | satisfied

Ask | Field: below-cutoff. Rule: recorded growth strictly less than 80%. Subject: C[C@]12CC[C@H]3[C@@H](CC=C4C[C@@H](O)CC[C@@]43C)[C@@H]1CC[C@@H]2C(=O)C/C=N/O
Reply | not satisfied

----------
system: U251 CNS; test: NCI-60 one-dose screen, 48 h; conditions: 10 µM
This is part of a sample that, as a whole, favours compounds with a hit. Of some 83,000 tested, about 20% had one in any assay. Calls of active or inactive are those of the source. The calls were made as follows: active = growth percent below 10; inactive = the rest.
Hi! Could you answer with just one of these? YES (active), NO (inactive)

• C#C[C@]1(O)CC[C@H]2[C@@H]3CC[C@H]4CC(F)(F)CC[C@]4(C)[C@H]3CC[C@@]21C = NO
• COc1ccc(-c2n/c(=C\c3c(O)[nH]c4ccccc34)cc3c2=Nc2ccccc2-3)cc1 = YES
• O=C/C=C/c1ccc([N+](=O)[O-])cc1Cl = NO
• O=C(C=P(c1ccccc1)(c1ccccc1)c1ccccc1)c1ccc(Br)cc1 = NO
• CC1=CC2OC34COC3CC(OC(=O)C(F)(F)F)C4(C)C2(C)CC1 (stereo not drawn) = NO

Ask | What is the recorded call for this compound in the test? COc1ccc2nc(-c3ccccc3)cc(C(C)=O)c2c1
Reply | NO

Ask | What is the recorded call for this compound in the test? CC(C)=C1CCC(C)C/C1=N\N=C(N)N (stereo not drawn)
Reply | NO

Ask | What is the recorded call for this compound in the test? Cc1nnc2c3nnc(-c4ccc(Cl)cc4)n3c3ccccc3n12
Reply | NO

Ask | What is the recorded call for this compound in the test? c1ccc(CC(NCCNC(Cc2ccccc2)c2ccccc2)c2ccccc2)cc1 (stereo not drawn)
Reply | NO

Ask | What is the recorded call for this compound in the test? COc1cc(-c2nc3ccccc3[nH]2)ccc1OCc1nnc(-c2ccc(Br)cc2)o1
Reply | NO

Ask | What is the recorded call for this compound in the test? COc1cc(C2c3cc4c(cc3C(O)C(CO)C2CO)OCO4)cc(OC)c1OC (stereo not drawn)
Reply | NO

Ask | What is the recorded call for this compound in the test? Cn1cnc([N+](=O)[O-])c1/C=C1\Oc2ccc(Cl)cc2C1=O
Reply | NO

Ask | What is the recorded call for this compound in the test? O=NN(CCCl)C(=O)NCc1ccc(-c2ccc(CNC(=O)N(CCCl)N=O)cc2)cc1
Reply | NO

Ask | What is the recorded call for this compound in the test? COc1ccc(-c2nc(-c3ccccc3)c(-c3ccccc3)[nH]2)cc1OC1CCCC1
Reply | NO

Ask | What is the recorded call for this compound in the test? CCOC(=O)CSC(=S)SCC(=O)OCC
Reply | NO

Ask | What is the recorded call for this compound in the test? NS(=O)(=O)c1ccc(N2N=C(c3ccc(-c4ccccc4)cc3)CC2c2ccc(Cl)cc2)cc1 (stereo not drawn)
Reply | NO

Ask | What is the recorded call for this compound in the test? O=C(O)CCCN1C(=O)NC2(C1=O)c1ccccc1-c1ccccc12
Reply | NO

Ask | What is the recorded call for this compound in the test? Nc1ccccc1NC(=O)CCCCCCC(=O)Nc1ccc2c(c1)/C(=C/c1ccc[nH]1)C(=O)N2
Reply | NO

Ask | What is the recorded call for this compound in the test? COc1ccc(-c2ccccc2)cc1C(=O)c1ccc(-c2ccccc2)cc1
Reply | NO

Ask | What is the recorded call for this compound in the test? O=S(=O)(NCl)c1ccccc1
Reply | NO

Ask | What is the recorded call for this compound in the test? CNC(=O)c1cc(Oc2ccc(NC(=O)Nc3ccc(Cl)c(C(C)(C)C)c3)c(F)c2)ccn1
Reply | NO

Ask | What is the recorded call for this compound in the test? COc1cc(N=C2C(=O)N(Cc3ccccc3)c3ccccc32)cc(OC)c1OC
Reply | NO

Ask | What is the recorded call for this compound in the test? C/C=C\COc1cc(C)c(Cl)cc1Cl
Reply | NO

Ask | What is the recorded call for this compound in the test? [O-]c1c[n+](-c2ccc(Cl)cc2)no1
Reply | NO

Ask | What is the recorded call for this compound in the test? N#CN1CC[C@H](C(=O)Nc2ncc(-c3ccncc3)s2)C1
Reply | YES

Ask | What is the recorded call for this compound in the test? CCc1nn2c(-c3ccccc3)c(-c3cc(OC)c(OC)c(OC)c3)nc2s1
Reply | NO

Ask | What is the recorded call for this compound in the test? COc1ccc2c(=O)cc(C(Cl)(Cl)Cl)oc2c1
Reply | YES

Ask | What is the recorded call for this compound in the test? CCOC(=O)c1cc(-c2ccccc2)nc(N)n1
Reply | NO

Ask | What is the recorded call for this compound in the test? O=c1cc(CSc2nnc(-c3ccccc3)n2-c2ccc(F)cc2)c2ccc3ccccc3c2o1
Reply | NO

Ask | What is the recorded call for this compound in the test? COC(=O)c1cnc2c(c1)Oc1ccc(Cl)cc1-c1cc(C)nn1-2
Reply | NO
